assay_target: E. coli gyrase (Escherichia coli, UniProt P0AES4+P0AES6)
Construct: purchased Lucent, Ltd., Leicester, UK
Sequence (P0AES4 whole entry, one chain of several): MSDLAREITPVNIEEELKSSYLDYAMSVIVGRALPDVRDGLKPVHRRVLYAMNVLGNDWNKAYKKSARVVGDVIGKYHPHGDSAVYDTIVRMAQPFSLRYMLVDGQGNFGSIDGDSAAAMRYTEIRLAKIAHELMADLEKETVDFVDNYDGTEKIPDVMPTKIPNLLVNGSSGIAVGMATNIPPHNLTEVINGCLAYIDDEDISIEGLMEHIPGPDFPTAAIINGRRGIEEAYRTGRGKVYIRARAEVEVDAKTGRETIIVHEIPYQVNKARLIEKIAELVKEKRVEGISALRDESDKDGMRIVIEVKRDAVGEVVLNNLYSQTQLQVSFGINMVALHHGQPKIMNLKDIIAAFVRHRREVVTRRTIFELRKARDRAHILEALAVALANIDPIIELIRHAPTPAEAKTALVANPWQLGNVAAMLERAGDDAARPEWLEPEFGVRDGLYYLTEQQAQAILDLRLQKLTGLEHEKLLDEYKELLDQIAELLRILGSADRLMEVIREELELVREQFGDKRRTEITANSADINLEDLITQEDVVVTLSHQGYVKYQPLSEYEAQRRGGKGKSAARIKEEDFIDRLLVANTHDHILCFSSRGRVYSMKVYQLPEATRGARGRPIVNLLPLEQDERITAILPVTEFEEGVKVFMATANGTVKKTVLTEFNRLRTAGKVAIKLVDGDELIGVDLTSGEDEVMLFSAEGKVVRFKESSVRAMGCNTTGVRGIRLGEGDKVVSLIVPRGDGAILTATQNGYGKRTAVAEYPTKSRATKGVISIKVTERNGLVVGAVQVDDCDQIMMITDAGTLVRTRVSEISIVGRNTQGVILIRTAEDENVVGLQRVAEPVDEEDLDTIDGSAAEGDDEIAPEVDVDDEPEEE
method: DNA gyrase supercoiling inhibition assay
Format: biochemical
condition_notes: supercoiling of relaxed pBR322, 30 minutes at 37° C.; read-out: E. coli gyrase IC50
Where a name gives a salt, the structure may show the parent alone.
Consider the following compounds; for each one, report its IC50.
Write it as a number; the unit µM goes unstated.

## Task What is its IC50 for E. coli gyrase (Escherichia coli, UniProt P0AES4+P0AES6)? Entry: Cl.N[C@H]1CCN(c2c(F)cc3c(=O)n(N)c(=O)n(NC4CC4)c3c2F)C1 [Compound 7, hydrochloride]
## Result 1.3

## Task What is its IC50 for E. coli gyrase (Escherichia coli, UniProt P0AES4+P0AES6)? Entry: N[C@H]1CCN(c2c(F)c(F)c3c(=O)n(N)c(=O)n(C4CC4)c3c2F)C1 [Compound 9, hydrochloride]
## Result 3

## Task What is its IC50 for E. coli gyrase (Escherichia coli, UniProt P0AES4+P0AES6)? Entry: NCC1CCN(c2c(F)cc3c(=O)n(N)c(=O)n(C4CC4)c3c2Cl)C1 (stereo not drawn) [Compound 1, hydrochloride]
## Result 1

###

metric: melting point

## Task Please report the recorded melting point for Cc1c(N2CCC(N)(c3ccccc3)C2)c(F)cc2c(=O)n(N)c(=O)n(C3CC3)c12.Cl (centres unmarked) .
## Result 236 °C

## Task Please report the recorded melting point for Cc1c(N2CCCC(CCN)C2)c(F)cc2c(=O)n(N)c(=O)n(C3CC3)c12.Cl (centres unmarked) .
## Result 200 °C

## Task Please report the recorded melting point for Nn1c(=O)c2cc(F)c(N3CCC(=NO)C3)c(Cl)c2n(C2CC2)c1=O [Compound 65] .
## Result 147 to 149 °C

## Task Please report the recorded melting point for COc1c(N2CCC3(CC3N)C2)c(F)cc2c(=O)n(N)c(=O)n(C3CC3)c12.Cl (centres unmarked) .
## Result > 250 °C

## Task Please report the recorded melting point for Cc1c(N2CC3CCCNC3C2)c(F)cc2c(=O)n(N)c(=O)n(C3CC3)c12.Cl (centres unmarked) .
## Result 220 °C

## Task Please report the recorded melting point for NC(=O)C1CCCN(c2c(F)cc3c(=O)n(N)c(=O)n(C4CC4)c3c2Cl)C1 (centres unmarked) [Compound 58] .
## Result 141 to 144 °C

## Task Please report the recorded melting point for `CN[C@@H](C)[C@@H]1CCN(c2cc3c(c(C)c2F)c(=O)n(N)c(=O)n3C2CC2)C1.Cl` .
## Result 182 to 185 °C

## Task Please report the recorded melting point for Cc1c(N2CC3C(N)C3C2)c(F)cc2c(=O)n(N)c(=O)n(C3CC3)c12.Cl (centres unmarked) .
## Result 180 to 182 °C

## Task Please report the recorded melting point for CS(=O)(=O)NCC1CCN(c2c(F)cc3c(=O)n(N)c(=O)n(C4CC4)c3c2Cl)C1.Cl (centres unmarked) .
## Result 109 to 112 °C

## Task Please report the recorded melting point for NC1CCN(c2c(Cl)cc3c(=O)n(N)c(=O)n(C4CC4)c3c2F)C1.O=C(O)C(F)(F)F (centres unmarked) .
## Result 135 to 137 °C

## Task Please report the recorded melting point for CC1COc2c(N3CC[C@@H]([C@H](C)N)C3)c(F)cc3c(=O)n(N)c(=O)n1c23.Cl (some centres unmarked) .
## Result 192 to 194 °C
